FYI, the data here is from PubChem BioAssay (NCI).

Record form. Attribute: TGI. Fill in for each entry.
System: OVCAR-4 ovarian
protocol_notes: NCI tumour cell line growth inhibition, 48 h

O=C(c1ccc(Cl)cc1)C1OC12C(=O)Nc1ccccc12 (configuration not stated) ... 34.1 µM

Hi there! I need TGI for each item below, if you can.
1. COc1ccc(S(=O)(=O)N(C)CC(=O)O)cc1
2. C(/Cc1ccc2c(c1)OCO2)=N\NC1=NCCCN1

1: > 100 µM; 2: > 100 µM

Hi there! I need TGI for each item below, if you can.
1. N=C1C=C(N)C(=O)c2[nH]c(=O)ccc21
2. Nc1ncnc2c1ncn2Cc1cccc(CCl)c1
3. C=[CH][Sn]([CH]=C)([O]c1cccc2cccnc12)[O]c1cccc2cccnc12
4. CSc1ccc(/C=C2\N=C(c3ccccc3)N(/N=C/c3cc4cc(C)ccc4nc3Cl)C2=O)cc1
5. O=C(Cc1csc2nc(-c3ccc(Br)cc3)cn12)N/N=C/c1ccc(O)cc1

1. 2.74 µM
2. 47.3 µM
3. 4.37 µM
4. 39.3 µM
5. > 100 µM

Hi there! I need TGI for each item below, if you can.
1. CCOC(=O)c1cnccc1CC1(C#N)c2ccccc2C=CN1C(=O)c1ccccc1 (configuration not stated)
2. O=C(/C=C/c1cccs1)c1ccccc1Cl
3. Cn1c2ccccc2n2c3ncccc3c(=S)c(C#N)c12
4. C/C(=N\Nc1nc2ccccc2[nH]1)c1cc2ccccc2cn1
5. CC(NC(=O)c1ccccc1)(C(=O)O)C(=O)O

1: > 100 µM; 2: 26.8 µM; 3: > 100 µM; 4: 2.41 µM; 5: > 100 µM

Hi there! I need TGI for each item below, if you can.
1. CS(=O)(=O)NC12CCC(c3ccccc31)c1ccccc12
2. COc1c(C)c(C/C=C(\C)CC/C=C(\C)CCC=C(C)C)c(OC)c(OC)c1OC
3. Cc1csc(NC(=NCCN2CCOCC2)Nc2nc(C)cs2)n1
4. O=C(CC1Sc2ccccc2NC1=O)Nc1ccc(Cl)cc1 (configuration not stated)
5. CCOC(=O)C1CCCCN1CCc1c[nH]c2ccccc12 (configuration not stated)

> 100 µM
> 100 µM
> 100 µM
47.3 µM
> 100 µM
